Measured values drawn from patent US8481732B2 for this set.

target: histamine H4 receptor (Homo sapiens); test: H4 Membrane Binding Assay (3H-Histamine displacement); settings: membranes of recombinant HEK293SFM cells, 10 nM 3H-Histamine, 1.5 hr at room temperature
parameter: IC50 (nM)

molecule	parameter	unit-text	assay-value
COCC1(NC(=O)N2CCc3ccc(-c4cc(N5CCN(C)CC5)nc(N)n4)cc3C2)CCCC1 [Example 94]	IC50	nM	149
CN1CCN(c2cc(-c3ccc4c(c3)CN(C(=O)COc3cccc(Cl)c3)CC4)nc(N)n2)CC1 [Example 66]	IC50	nM	44
CN1CCN(c2cc(-c3ccc4c(c3)CN(C(=O)Nc3cccc(Cl)c3F)CC4)nc(N)n2)CC1 [Example 40]	IC50	nM	16
CC(Cc1ccc(Oc2ccccc2)cc1)NC(=O)c1ccc2c(N3CCN(C)CC3)nc(N)nc2c1 (stereo not shown) [Example 142]	IC50	nM	34
CCOC(=O)c1cccnc1Oc1cccc(CNC(=O)c2ccc3c(N4CCN(C)CC4)nc(N)nc3c2)c1 [Example 184]	IC50	nM	43

[1] CN1CCN(c2nc(N)nc3cc(C(=O)NC(Cc4ccc5c(c4)OC(F)(F)O5)C(=O)N(C)C)ccc23)CC1 (stereo not shown) [Example 145]
[2] CN1CCN(c2cc(-c3ccc4c(c3)CN(C(=O)Nc3ccccc3)CC4)nc(N)n2)CC1 [Example 12]
Hi team, can someone confirm which has the larger IC50: 1 or 2 ? Thanks. Pick one; state its label.
1

----------
target: histamine H4 receptor (Homo sapiens, UniProt Q9H3N8); experiment: H4 Membrane Binding Assay (3H-Histamine displacement); conditions: membranes of recombinant HEK293SFM cells, 10 nM 3H-Histamine, 1.5 hr at room temperature
pIC50: −log10 of the molar value.
parameter: pIC50

Some solved entries appear below for comparison.
molecule	assay-value
CN1CCN(c2nc(N)nc3cc(C(=O)NCc4ccc(Cl)c(Cl)c4)ccc23)CC1	7.77
CN1CCN(c2nc(N)nc3cc(C(=O)NC(Cc4ccc5c(c4)OC(F)(F)O5)C(=O)N(C)C)ccc23)CC1 (single isomer, unassigned) [Example 145B]	7.59

[P] CN1CCN(c2nc(N)nc3cc(C(=O)N[C@@H](Cc4ccc(-c5cccs5)cc4)C(=O)N(C)C)ccc23)CC1
[Q] CN1CCN(c2nc(N)nc3cc(C(=O)N4CCc5c(cccc5OCc5cccc(C#N)c5)C4)ccc23)CC1
Larger number for pIC50: P , or Q ? Write down the label attached to your selection.
P

[I] CN1CCN(c2cc(-c3ccc4c(c3)CN(C(=O)Cc3ccc(Cl)nc3)CC4)nc(N)n2)CC1
[II] CN1CCN(c2nc(N)nc3cc(C(=O)NCc4cccc(Oc5cnc6ccccc6n5)c4)ccc23)CC1
Hi! Which is lower in terms of pIC50, the first one I or the second one II ? Pick one and reply with its label.
I

----------
molecular target: histamine H4 receptor (Homo sapiens); assay: H4 Membrane Binding Assay (3H-Histamine displacement); conditions: membranes of recombinant HEK293SFM cells, 10 nM 3H-Histamine, 1.5 hr at room temperature
parameter: IC50 (nM)

compound	tested-system	IC50, nM
CN1CCN(c2cc(-c3ccc4c(c3)CN(C(=O)Cc3cncc(C#N)c3)CC4)nc(N)n2)CC1 [Example 125]	histamine H4 receptor (Homo sapiens)	92

[P] CNC(=O)c1ccc(-c2ccc(N3CCc4ccc(-c5cc(N6CCN(C)CC6)nc(N)n5)cc4C3)nc2)cc1 [Example 19]
[Q] CN1CCN(c2nc(N)nc3cc(C(=O)NC4CCCc5ccc(OCc6ccc(C#N)cc6)cc54)ccc23)CC1 (stereo not drawn) [Example 205]
Of P versus Q , which is the one with smaller reported IC50? Which one? Tell me its label.
Q
